Test system: NCI-H460 lung
Assay: NCI-60 one-dose screen, 48 h (100 = growth as untreated, 0 = no growth, -100 = all killed)
Conditions: 10 µM unless noted
Description: Growth inhibition of the NCI-H460 human Non-Small Cell Lung tumor cell line is measured as a screen for anti-cancer activity. Cells are grown in 96 well plates and exposed to the test compound for 48 hours. Compounds are tested at a single concentration, which is 10^-5 M for most compounds. The reported endpoint is percent growth (GI% or GIPRCNT), where numbers from 0 - 100% represent growth inhibition, and numbers from -100% - 0 represent cell death. […]
This is part of a sample that, as a whole, favours compounds with a hit. Of some 83,000 tested, about 20% had one in any assay.
measure: growth (%)
Enter your answer as a number in %; do not include the unit.

compound	growth / %
COc1ccc(NC(=O)Cn2c(=O)sc3c(-c4ccc(Cl)cc4)cc(-c4ccc(Cl)cc4)nc32)cc1	102
CN1C2CCC1/C(=C\c1ccc(F)cc1)C(=O)/C2=C/c1ccc(F)cc1	14.1
CC1=C(O)C(=O)CC1	109
S=C(Nc1ccc(Cl)cc1)Nc1ccc(Cl)cc1 (tested in a mixture with another compound)	-17.4

Okay, next one:
In: Given the entry COc1ccc(CNc2c3ccccc3nc3ccc(OC)cc23)cc1 , report its measured growth.
Out: 6.48
